Target: Pax6 DNA-binding domain (BD-Pax6) (Mus musculus (B6), UniProt P63015 190-289)
Sequence (P63015 190-289): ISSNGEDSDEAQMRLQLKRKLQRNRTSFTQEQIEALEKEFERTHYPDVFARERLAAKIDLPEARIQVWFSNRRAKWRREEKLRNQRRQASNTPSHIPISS
Test: EMSA; 10% glycerol, 20 mM HEPES pH 7.8, 45 mM KCl, 10 mM NaCl, 1 mM EDTA, 1 mM DTT, 0.2 ug/uL BSA, 0.1% NP-40, 50 ng poly-dIdC; 20 ng each GST protein; room temperature 30 min (heterodimers 4 C); 6% PAGE 0.25x TBE
Settings: protein: recombinant; tags: GST (N-terminal, pGEX-6P-1); label: 32P-dCTP fill-in of the 5' (dG)5 overhangs of both strands (Methods; control probes are given with GGG)
PROPERTY_MEASURED: binding result

Which value of binding result has been reported for 108 (dsDNA) DNA 1: GGGGGCATCTTATCGTTAATATATACGTTTGTTACATATACCCCC DNA 2: GGGGGTATATGTAACAAACGTATATATTAACGATAAGATGCCCCC in the records?
binds

Look up binding result for this binder: 102c (dsDNA) DNA 1: GGGGGATTTGGCGATTGTATTATAATTGTCTATCAGTCCCCC DNA 2: GGGGGACTGATAGACAATTATAATACAATCGCCAAATCCCCC
binds
